# pKa per entry
# MEASUREMENT NOTES: Acid dissociation constant was determined for the compound
# Type: ADME
# DETAILS: read-out: pKa1
ASSAY METRIC: pKa

>>> val("CN/C(=N/CCSCc1nc[nH]c1C)NC#N")
6.98
>>> val("NCCc1c[nH]cn1")
9.57
>>> val("CC(C)/N=C/Nc1ccc(-c2c[nH]cn2)cc1")
8.82

The reported numbers originate from ChEMBL document CHEMBL1123583.
